testTarget: Recombinant human integrin ανβ8 (Homo sapiens, UniProt P06756+P26012)
Sequence (P06756 31-992 limits assumed): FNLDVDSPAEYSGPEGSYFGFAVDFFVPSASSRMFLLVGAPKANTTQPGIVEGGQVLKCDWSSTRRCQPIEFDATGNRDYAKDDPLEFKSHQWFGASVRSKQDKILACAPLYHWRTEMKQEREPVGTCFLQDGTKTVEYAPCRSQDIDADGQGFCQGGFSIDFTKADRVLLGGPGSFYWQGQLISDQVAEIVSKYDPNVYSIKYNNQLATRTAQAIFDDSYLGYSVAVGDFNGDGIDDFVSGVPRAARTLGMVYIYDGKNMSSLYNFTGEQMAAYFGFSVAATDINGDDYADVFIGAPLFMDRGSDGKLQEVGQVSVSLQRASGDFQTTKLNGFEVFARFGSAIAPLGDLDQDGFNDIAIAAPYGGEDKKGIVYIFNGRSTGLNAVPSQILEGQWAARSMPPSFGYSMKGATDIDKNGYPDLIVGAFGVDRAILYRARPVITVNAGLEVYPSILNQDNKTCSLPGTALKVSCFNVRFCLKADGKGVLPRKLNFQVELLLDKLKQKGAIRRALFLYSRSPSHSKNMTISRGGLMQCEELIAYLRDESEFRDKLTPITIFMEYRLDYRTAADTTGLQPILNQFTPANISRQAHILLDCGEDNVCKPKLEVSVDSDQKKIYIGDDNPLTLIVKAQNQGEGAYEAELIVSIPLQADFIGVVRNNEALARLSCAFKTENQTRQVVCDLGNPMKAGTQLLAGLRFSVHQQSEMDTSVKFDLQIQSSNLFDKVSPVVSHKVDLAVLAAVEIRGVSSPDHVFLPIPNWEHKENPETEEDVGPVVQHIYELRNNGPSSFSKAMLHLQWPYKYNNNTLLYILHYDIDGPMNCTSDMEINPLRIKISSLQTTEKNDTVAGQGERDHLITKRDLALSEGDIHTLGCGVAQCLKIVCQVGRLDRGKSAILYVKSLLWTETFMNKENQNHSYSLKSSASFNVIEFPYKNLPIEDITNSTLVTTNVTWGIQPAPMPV
Sequence (P26012 43-684 limits assumed): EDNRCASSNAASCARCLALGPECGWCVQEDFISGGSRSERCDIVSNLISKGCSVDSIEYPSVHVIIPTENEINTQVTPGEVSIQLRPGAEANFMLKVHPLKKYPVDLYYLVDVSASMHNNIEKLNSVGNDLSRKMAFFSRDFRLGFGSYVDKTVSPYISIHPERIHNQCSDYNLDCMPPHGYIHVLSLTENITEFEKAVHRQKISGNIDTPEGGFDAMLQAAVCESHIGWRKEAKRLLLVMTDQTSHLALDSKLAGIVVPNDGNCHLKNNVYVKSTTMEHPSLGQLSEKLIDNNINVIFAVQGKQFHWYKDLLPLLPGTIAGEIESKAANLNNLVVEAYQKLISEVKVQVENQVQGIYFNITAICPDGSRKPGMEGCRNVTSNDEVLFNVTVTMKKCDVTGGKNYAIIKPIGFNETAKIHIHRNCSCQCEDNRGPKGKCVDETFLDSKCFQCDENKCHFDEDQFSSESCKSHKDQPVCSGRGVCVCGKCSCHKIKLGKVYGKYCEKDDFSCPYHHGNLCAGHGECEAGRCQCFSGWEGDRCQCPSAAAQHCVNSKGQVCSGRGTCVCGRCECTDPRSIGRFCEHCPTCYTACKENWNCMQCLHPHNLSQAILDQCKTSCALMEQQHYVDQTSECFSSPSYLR
procedureDetails: Solid Phase Receptor Assay (SPRA) for ανβ8 function
runConditions: plate-bound human LAP; read-out: αvβ8 SPRA IC50
Counter-ions that a name gives are not always drawn.
recordedMetric: IC50 (nM)
Enter your answer as a number in nM; do not include the unit.

Noted for Cn1nc(CC(CC(=O)O)c2cc(C(C)(C)C)ccc2O)cc1OCCc1ccc2c(n1)NCCC2 (stereo not drawn) [Example 42, Sodium Salt] : its IC50 reads 3.1

Noted for Cn1nc(CC(CC(=O)O)c2cc(C(C)(C)C)cc(C(C)(C)C)c2)cc1OCCc1ccc2c(n1)NCCC2 (stereo not drawn) : its IC50 reads 85

Noted for Cn1nc(CC(CC(=O)O)c2cc(Cl)cc(C(C)(C)C(F)(F)F)c2)cc1OCCc1ccc2c(n1)NCCC2 (stereo not drawn) : its IC50 reads 11

Noted for Cn1nc(CC(CC(=O)O)c2cc(F)cc(C3(C(F)F)CC3)c2)cc1OCCc1ccc2c(n1)NCCC2 (stereo not drawn) : its IC50 reads 53

Noted for COCC1(c2cc(C(CC(=O)O)Cc3cc(OCCc4ccc5c(n4)NCCC5)n(C)n3)cc(C(F)(F)F)c2)CCOCC1 (stereo not drawn) : its IC50 reads 9.9

Noted for Cn1nc(CC(CC(=O)O)c2cc(C#N)cc(C(F)(F)F)c2)cc1OCCc1ccc2c(n1)NCCC2 (stereo not drawn) : its IC50 reads 14

Noted for Cn1nc(CC(CC(=O)O)c2cc(OC(F)(F)F)cc(C(C)(C)C)c2)cc1OCCc1ccc2c(n1)NCCC2 (stereo not drawn) : its IC50 reads 40

Noted for Cn1nc(CC(CC(=O)O)c2cc(Br)cc(C(C)(C)C)c2)cc1OCCc1ccc2c(n1)NCCC2 (stereo not drawn) : its IC50 reads 7.8

Noted for COc1ccc([C@H](CC(=O)O)Cc2cc(OCCc3ccc4c(n3)NCCC4)n(C)n2)cc1F : its IC50 reads 90

Noted for COc1c(C(CC(=O)O)Cc2cc(OCCc3ccc4c(n3)NCCC4)n(C)n2)cccc1C(C)(C)C (stereo not drawn) : its IC50 reads 970

Noted for CC(C)Oc1ccc(C(C)(C)C)cc1C(CC(=O)O)Cc1cc(OCCc2ccc3c(n2)NCCC3)n(C)n1 (stereo not drawn) [Example 35, Trifluoroacetate] : its IC50 reads 120

Noted for Cn1nc(CC(CC(=O)O)c2cc(C#N)cc(C3(C(F)F)CC3)c2)cc1OCCc1ccc2c(n1)NCCC2 (stereo not drawn) : its IC50 reads 14

Noted for Cn1nc(CC(CC(=O)O)c2cc(F)cc(C(C)(C)C(F)(F)F)c2)cc1OCCc1ccc2c(n1)NCCC2 (stereo not drawn) : its IC50 reads 89

Noted for Cn1nc(CC(CC(=O)O)c2cc(C(F)(F)F)cc(C3(C(F)F)CC3)c2)cc1OCCc1ccc2c(n1)NCCC2 (stereo not drawn) : its IC50 reads 7.9

Noted for COc1ccc(C(C)(C)C)cc1C(CC(=O)O)Cc1cc(OCCc2ccc3c(n2)NCCC3)n(C)n1 (stereo not drawn) : its IC50 reads 87

====

Reported values of IC50 for individual entries
testTarget: Recombinant human integrin ανβ1 (Homo sapiens, UniProt P05556+P06756)
Sequence (P05556 21-728 limits assumed, one chain of several): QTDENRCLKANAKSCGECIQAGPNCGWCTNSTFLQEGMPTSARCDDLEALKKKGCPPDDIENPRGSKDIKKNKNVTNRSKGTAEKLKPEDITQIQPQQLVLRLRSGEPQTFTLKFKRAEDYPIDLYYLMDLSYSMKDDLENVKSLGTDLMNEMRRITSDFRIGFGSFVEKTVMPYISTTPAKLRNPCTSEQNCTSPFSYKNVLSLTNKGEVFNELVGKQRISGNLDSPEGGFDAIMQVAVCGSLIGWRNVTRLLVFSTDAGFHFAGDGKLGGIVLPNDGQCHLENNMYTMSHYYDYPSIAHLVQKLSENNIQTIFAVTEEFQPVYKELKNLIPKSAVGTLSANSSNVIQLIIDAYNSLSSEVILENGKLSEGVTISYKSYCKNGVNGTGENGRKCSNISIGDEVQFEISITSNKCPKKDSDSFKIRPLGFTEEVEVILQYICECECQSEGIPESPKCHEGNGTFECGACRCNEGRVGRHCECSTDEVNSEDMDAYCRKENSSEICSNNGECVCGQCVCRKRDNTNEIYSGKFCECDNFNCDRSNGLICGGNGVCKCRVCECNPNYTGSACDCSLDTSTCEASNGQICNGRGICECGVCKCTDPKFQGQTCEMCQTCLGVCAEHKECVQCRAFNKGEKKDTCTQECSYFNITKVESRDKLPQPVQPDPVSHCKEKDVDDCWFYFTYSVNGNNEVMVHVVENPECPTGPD
procedureDetails: Solid Phase Receptor Assay (SPRA) for ανβ1 function
runConditions: plate-bound human fibronectin; read-out: αvβ1 SPRA IC50
Where a name gives a salt, the structure may show the parent alone.
Enter your answer as a number in nM; do not include the unit.

Take a look at these entries with their results.
[
  {
    "molecule": "Cn1nc(CC(CC(=O)O)c2cccc(Br)c2)cc1OCCc1ccc2c(n1)NCCC2 (stereo not drawn)",
    "testTarget": "Recombinant human integrin ανβ1 (Homo sapiens, UniProt P05556+P06756)",
    "IC50 / nM": 10
  },
  {
    "molecule": "Cn1nc(CC(CC(=O)O)c2cc(C(C)(C)C)ccc2O)cc1OCCc1ccc2c(n1)NCCC2 (stereo not drawn) [Example 42, Sodium Salt]",
    "testTarget": "Recombinant human integrin ανβ1 (Homo sapiens, UniProt P05556+P06756)",
    "IC50 / nM": 2.4
  },
  {
    "molecule": "COc1cc(C(C)(C)C)ccc1C(CC(=O)O)Cc1cc(OCCc2ccc3c(n2)NCCC3)n(C)n1 (stereo not drawn)",
    "testTarget": "Recombinant human integrin ανβ1 (Homo sapiens, UniProt P05556+P06756)",
    "IC50 / nM": 47
  }
]

Noted for Cn1nc(CC(CC(=O)O)c2cc(F)cc(C(C)(C)C)c2)cc1OCCc1ccc2c(n1)NCCC2 (stereo not drawn) : its IC50 reads 4.5

Noted for COCC1(c2cc(Cl)cc(C(CC(=O)O)Cc3cc(OCCc4ccc5c(n4)NCCC5)n(C)n3)c2)CCOCC1 (stereo not drawn) : its IC50 reads 9.4

Noted for Cn1nc(CC(CC(=O)O)c2cc(Br)cc(C3(C(F)F)CC3)c2)cc1OCCc1ccc2c(n1)NCCC2 (stereo not drawn) : its IC50 reads 6.3

Noted for COc1c(C(CC(=O)O)Cc2cc(OCCc3ccc4c(n3)NCCC4)n(C)n2)cccc1C(C)(C)C (stereo not drawn) : its IC50 reads 2400

Noted for Cn1nc(CC(CC(=O)O)c2cc(C(C)(C)C)cc(C(C)(C)C)c2)cc1OCCc1ccc2c(n1)NCCC2 (stereo not drawn) : its IC50 reads 1.4

Noted for COc1ccc(Br)cc1C(CC(=O)O)Cc1cc(OCCc2ccc3c(n2)NCCC3)n(C)n1 (stereo not drawn) [Example 14, trifluoroacetate] : its IC50 reads 5

Noted for Cn1nc(CC(CC(=O)O)c2cc(C(F)(F)F)cc(C3(C(F)F)CC3)c2)cc1OCCc1ccc2c(n1)NCCC2 (stereo not drawn) : its IC50 reads 3.8

Noted for COCC1(c2cc(F)cc(C(CC(=O)O)Cc3cc(OCCc4ccc5c(n4)NCCC5)n(C)n3)c2)CCOCC1 (stereo not drawn) : its IC50 reads 6.6

Noted for Cn1nc(CC(CC(=O)O)c2cccc(C(C)(C)C)c2)cc1OCCc1ccc2c(n1)NCCC2 (stereo not drawn) [Example 49, Trifluoroacetate] : its IC50 reads 4.4

Noted for COc1ccc(C(N)=O)cc1C(CC(=O)O)Cc1cc(OCCc2ccc3c(n2)NCCC3)n(C)n1 (stereo not drawn) [Example 47, trifluoroacetate] : its IC50 reads 4.9

Noted for Cn1nc(CC(CC(=O)O)c2cc(C(C)(C)C)cc(C(F)(F)F)c2)cc1OCCc1ccc2c(n1)NCCC2 (stereo not drawn) : its IC50 reads 7.5

Noted for Cn1nc(CC(CC(=O)O)c2ccc(Br)c(F)c2)cc1OCCc1ccc2c(n1)NCCC2 (stereo not drawn) : its IC50 reads 5

====

Reported values of IC50 for individual entries
testTarget: Recombinant human integrin ανβ5 (Homo sapiens, UniProt P06756+P18084)
Sequence (P18084 24-719 limits assumed, one chain of several): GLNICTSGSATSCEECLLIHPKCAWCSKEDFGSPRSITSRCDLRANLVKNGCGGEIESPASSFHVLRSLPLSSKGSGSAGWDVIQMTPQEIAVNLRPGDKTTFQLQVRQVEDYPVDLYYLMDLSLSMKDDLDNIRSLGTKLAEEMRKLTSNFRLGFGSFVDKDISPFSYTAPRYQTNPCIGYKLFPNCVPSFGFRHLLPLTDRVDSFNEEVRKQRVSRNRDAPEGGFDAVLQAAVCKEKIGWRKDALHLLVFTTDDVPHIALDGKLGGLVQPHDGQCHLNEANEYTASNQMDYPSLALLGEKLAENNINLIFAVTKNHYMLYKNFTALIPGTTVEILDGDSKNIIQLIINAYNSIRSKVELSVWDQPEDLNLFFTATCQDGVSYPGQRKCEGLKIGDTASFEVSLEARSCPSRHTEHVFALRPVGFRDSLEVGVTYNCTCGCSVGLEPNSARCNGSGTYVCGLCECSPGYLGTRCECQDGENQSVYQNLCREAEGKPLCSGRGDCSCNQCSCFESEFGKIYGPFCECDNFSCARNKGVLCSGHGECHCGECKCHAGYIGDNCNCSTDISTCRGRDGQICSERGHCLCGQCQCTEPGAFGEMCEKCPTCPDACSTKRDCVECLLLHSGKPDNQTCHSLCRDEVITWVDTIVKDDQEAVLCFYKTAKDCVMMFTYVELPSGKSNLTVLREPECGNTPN
procedureDetails: Solid Phase Receptor Assay (SPRA) for ανβ5 function
runConditions: plate-bound human vitronectin; read-out: αvβ5 SPRA IC50
Where a name gives a salt, the structure may show the parent alone.
Enter your answer as a number in nM; do not include the unit.

[
  {
    "compound": "Cn1nc(CC(CC(=O)O)c2cc(F)cc(C(C)(C)C)c2)cc1OCCc1ccc2c(n1)NCCC2 (stereo not shown) [Example 38]",
    "IC50 (nM)": 0.3
  },
  {
    "compound": "Cn1nc(CC(CC(=O)O)c2cc(C(C)(C)C)cc(C(C)(C)C)c2)cc1OCCc1ccc2c(n1)NCCC2 (stereo not shown) [Example 18]",
    "IC50 (nM)": 180
  },
  {
    "compound": "Cn1nc(CC(CC(=O)O)c2cc(Br)cc(C(C)(C)C(F)(F)F)c2)cc1OCCc1ccc2c(n1)NCCC2 (stereo not shown) [Example 26]",
    "IC50 (nM)": 1.8
  },
  {
    "compound": "Cn1nc(CC(CC(=O)O)c2ccc(F)c(C#N)c2)cc1OCCc1ccc2c(n1)NCCC2 (stereo not shown) [Example 7]",
    "IC50 (nM)": 0.6
  },
  {
    "compound": "COc1ccc(C(N)=O)cc1C(CC(=O)O)Cc1cc(OCCc2ccc3c(n2)NCCC3)n(C)n1 (stereo not shown) [Example 47, trifluoroacetate]",
    "IC50 (nM)": 0.3
  }
]

Noted for Cn1nc(CC(CC(=O)O)c2ccc(C#N)c(F)c2)cc1OCCc1ccc2c(n1)NCCC2 (stereo not shown) [Example 8] : its IC50 reads 1

Noted for Cn1nc(CC(CC(=O)O)c2cc(C(C)(C)C)cc(C(F)(F)F)c2)cc1OCCc1ccc2c(n1)NCCC2 (stereo not shown) [Example 37] : its IC50 reads 6.2

====

testTarget: Recombinant human integrin ανβ8 (Homo sapiens, UniProt P06756+P26012)
procedureDetails: Solid Phase Receptor Assay (SPRA) for ανβ8 function
runConditions: plate-bound human LAP; read-out: αvβ8 SPRA IC50
Where a name gives a salt, the structure may show the parent alone.
MET if IC50 is below 20 nM. NOT MET if not; exact matches included in NOT MET.

Illustrative cases are given below, each with its answer.
[
  {
    "compound": "COCC1(c2cc(F)cc(C(CC(=O)O)Cc3cc(OCCc4ccc5c(n4)NCCC5)n(C)n3)c2)CCOCC1 (centres unmarked)",
    "testTarget": "Recombinant human integrin ανβ8 (Homo sapiens, UniProt P06756+P26012)",
    "qualitativeLabel": "NOT MET"
  },
  {
    "compound": "Cn1nc(CC(CC(=O)O)c2cc(Cl)cc(C3(C(F)F)CC3)c2)cc1OCCc1ccc2c(n1)NCCC2 (centres unmarked)",
    "testTarget": "Recombinant human integrin ανβ8 (Homo sapiens, UniProt P06756+P26012)",
    "qualitativeLabel": "MET"
  },
  {
    "compound": "Cn1nc(CC(CC(=O)O)c2cc(Br)cc(C(C)(C)C(F)(F)F)c2)cc1OCCc1ccc2c(n1)NCCC2 (centres unmarked)",
    "testTarget": "Recombinant human integrin ανβ8 (Homo sapiens, UniProt P06756+P26012)",
    "qualitativeLabel": "MET"
  },
  {
    "compound": "COc1ccc(Br)cc1C(CC(=O)O)Cc1cc(OCCc2ccc3c(n2)NCCC3)n(C)n1 (centres unmarked) [Example 14, trifluoroacetate]",
    "testTarget": "Recombinant human integrin ανβ8 (Homo sapiens, UniProt P06756+P26012)",
    "qualitativeLabel": "MET"
  },
  {
    "compound": "Cn1nc(CC(CC(=O)O)c2cc(Br)cc(C3(C(F)F)CC3)c2)cc1OCCc1ccc2c(n1)NCCC2 (centres unmarked)",
    "testTarget": "Recombinant human integrin ανβ8 (Homo sapiens, UniProt P06756+P26012)",
    "qualitativeLabel": "MET"
  }
]

Alright, here's another compound for you.
Query: Confirm or reject: IC50 of COc1ccc(C(=O)O)cc1C(CC(=O)O)Cc1cc(OCCc2ccc3c(n2)NCCC3)n(C)n1 (centres unmarked) [Example 48, Trifluoroacetate] lies strictly below 20 nM
Reply: NOT MET
